melting point listing for selected compounds.

Solved entries:
Cl.O=C(NCc1ccccc1)C(NC(c1ccccc1)c1ccccc1)c1ccccc1 (racemic): 218.4 to 219.2 °C (dec.)
Cl.O=C(CNCC(c1ccccc1)c1ccccc1)N1CCCc2ccccc21: 174 to 178 °C
Cl.O=C(CN1CCc2ccccc2C1)N1CCCc2ccccc21: 201 to 203 °C
O=C(NC(C(=O)NCc1ccccc1)c1ccccc1)c1ccc2cc(C(=O)O)[nH]c2c1 (stereo not shown) [Example 117]: 258 to 260 °C
CC(NCC(c1ccccc1)c1ccccc1)C(=O)N(c1ccccc1)c1ccccc1.Cl (racemic): 122 to 125 °C
CN(C(=O)CNCC(c1ccccc1)c1ccccc1)c1ccccc1.Cl: 221 to 223 °C
Cc1cccc2c1N(C(=O)CNCC(c1ccccc1)c1ccccc1)CCC2.Cl: 82 to 95 °C
CC(NCC(=O)N(c1ccccc1)c1ccccc1)c1ccccc1.Cl (racemic): 232 to 236 °C

I would be grateful if you could share the reported melting point for "CC(C)N(C(=O)CNCc1cccc2ccccc12)c1ccccc1.Cl" .
224 to 226 °C

I would be grateful if you could share the reported melting point for "Cl.O=C(CNCC(c1ccccc1)c1ccccc1)n1c2ccccc2c2ccccc21" .
250 °C

I would be grateful if you could share the reported melting point for CN(C(=O)CNC(c1ccccc1)c1ccccc1)c1ccccc1 [Example 24] .
115 to 116 °C

I would be grateful if you could share the reported melting point for "Cl.N[C@@H](C(=O)NCC(=O)N1c2ccccc2C=Cc2ccccc21)c1ccccc1" .
179 to 185 °C

I would be grateful if you could share the reported melting point for "Cl.O=C(CNCc1ccccc1Cl)N(Cc1ccccc1)c1ccccc1" .
190 to 192 °C

====

outcome_measure: melting point

Solved entries:
COc1ccc(CNC(C(=O)NCc2ccccc2)c2ccccc2)cc1.O=C(O)/C=C/C(=O)O (racemic): 153 to 155 °C
Cl.O=C(CNCc1ccccc1Cl)N(c1ccccc1)c1ccccc1: 213 to 214.5 °C

Query molecule follows.
I would be grateful if you could share the reported melting point for "Cl.O=C(CNCCc1ccccc1)N1c2ccccc2C=Cc2ccccc21" .
243 to 259 °C
